Test system: TK-10
assay-summary: NCI tumour cell line growth inhibition, 48 h
Activity calls are given as the source filed them. Cut-off read from the data, not from the text of the source: active = GI50 up to about 1.1 µM and inactive = higher.
Consider the following compounds and their measured GI50 readings.

# annotated cases, reported GI50 shown
>  <compound>
CC1(C)OCC(C2OC(=O)C(OCc3ccccc3)=C2OCc2ccccc2)O1 (centres undefined)

>  <GI50>
44.3 µM (inactive)

$$$$
>  <compound>
CC(=O)O[C@H]1C(=O)[C@@]2(C)[C@H]([C@H](OC(=O)c3ccccc3)[C@]3(O)C[C@H](OC(=O)[C@H](O)[C@@H](NC(=O)c4ccccc4)c4cccc(N(C)C)c4)C(C)=C1C3(C)C)[C@]1(OC(C)=O)CO[C@@H]1C[C@@H]2O

>  <GI50>
1.41 µM (inactive)

$$$$
>  <compound>
Cc1cc2nc3[nH]c4c(Cl)cc(Cl)cc4c3nc2cc1C

>  <GI50>
17.3 µM (inactive)

$$$$

Attention now turns to another entry.
Request: Identify measured GI50 corresponding to O=C(Nc1ccc2ncccc2c1)c1cc2c(cc1Cl)Sc1nccn1S2(=O)=O
Response: 20.4 µM (inactive)

----------
Tested on: SF-539
assay-summary: NCI tumour cell line growth inhibition, 48 h
Activity calls are given as the source filed them. No stated cut-off is given here; in the data, active = GI50 up to about 1.1 µM and inactive = higher.
Please reply with one of these outcomes: t for active, f for inactive

Sample answers from the record:
>  <molecule>
N#CC(C#N)=CNCCN1CCN(C=C(C#N)C#N)CC1

>  <class-label>
f

$$$$
>  <molecule>
O=C1C(C(O)(C(F)(F)Cl)C(F)(F)Cl)CCC1C(O)(C(F)(F)Cl)C(F)(F)Cl (stereo not drawn)

>  <class-label>
f

$$$$
>  <molecule>
COc1cc(CC(C(=O)O)C(=O)O)c(OC)cc1CC(C(=O)O)C(=O)O

>  <class-label>
f

$$$$
>  <molecule>
C[C@@H](O)C(=O)N1[C@@H]2CC3CC[C@]2(CS1(=O)=O)C3(C)C

>  <class-label>
f

$$$$
>  <molecule>
COc1cc(/C=C/c2ccc(OC)c(OC)c2)cc(OC)c1 [(E)-3,4,3',5'-TETRAMETHOXYSTILBENE]

>  <class-label>
f

$$$$
>  <molecule>
CC(C)OP(=O)(OC(C)C)/C(=N/Nc1ccc([N+](=O)[O-])cc1)NCCN/C(=N\Nc1ccc([N+](=O)[O-])cc1)P(=O)(OC(C)C)OC(C)C

>  <class-label>
f

$$$$

Request: Dear all, I need the recorded test outcome for Cc1ccc(Nc2nc(C)c(C(/C=C/c3ccc(/C=C/C(=N/NC(=O)C[n+]4ccccc4)c4sc(Nc5ccc(C)cc5[N+](=O)[O-])nc4C)cc3)=N\NC(=O)C[n+]3ccccc3)s2)c([N+](=O)[O-])c1 , thank you.
Response: f

Request: Which outcome did this test record for the molecule NN=C(CC(O)(C(F)(F)Cl)C(F)(F)Cl)CC(O)(C(F)(F)Cl)C(F)(F)Cl ?
Response: f

Request: Which result was noted for this molecule in the test: C=C1CC(OC(C)=O)/C=C(/C)CCC(C(C)(C)O)CC1O (stereo not drawn)
Response: f

Request: Hi, sorry to bother you, what did the test record for C[C@]12CCC(=O)C=C1CC[C@@H]1[C@@H]2CC[C@]2(C)C(=O)[C@H](n3ccnc3)C[C@@H]12 ?
Response: f

Request: Answer briefly: the call reported for Cc1ccc(O)c(-c2cc(-c3ccccc3)nc(/N=C\c3ccccc3)n2)c1 in this assay.
Response: f

Request: Which result was noted for this molecule in the test: CSCCCNC(=O)c1csc(-c2csc(CCN)n2)n1
Response: f

Request: # lookup: test call for Nc1nc(SCCc2ccccc2)nc2nc3c(c(-c4ccccc4)c12)CCCC3
Response: t
